The reported numbers originate from paper PMC9736855.

# experimental.target: CDK2/Cyclin E1 (Homo sapiens, UniProt P24941)
# Construct: Full-length kinases were obtained as plasmids cloned in frame with a terminal NanoLuc-fusion; CS1810C171 (CCNE1)
# protocol.description: NanoBRET
# reported.conditions: read-out: NanoBRET EC50 ± SEM CDK2/Cyclin E1
measurement.label: EC50 (nM)

These recorded examples may help you get a feel for the data.
>>> endpoint_result("CC(C)(C)OC(=O)Nc1ccc(CNc2nccc(Nc3cc(C(=O)OC(C)(C)C)[nH]n3)n2)cc1 [43d]")
1860
>>> endpoint_result("N#CCc1ccc(Nc2nccc(Nc3cc(C4CC4)[nH]n3)n2)cc1 [compound 1, reference compound]")
26.7

[I] COC(=O)c1cc(Nc2ccnc(NCc3ccc(NC(=O)OC(C)(C)C)cc3)n2)[nH]n1 [21i]
[II] CC(C)OC(=O)c1cc(Nc2ccnc(NCc3ccc(NC(=O)OC(C)(C)C)cc3)n2)n[nH]1 [42d]
Exercise: Sorting by EC50 in descending order, would I or II appear first? Answer by stating the label of the chosen item.
Solution: I
